# experimentalParameters: 313.15 K; 101.33 kPa; Liquid; Vibrating tube method
measuredMetric: mass density (kg/m3)
Answers are plain numbers, in kg/m3.

Illustrative cases are given below, each with its answer.
CC(=O)[O-].CCCCn1cc[n+](C)c1 [1-butyl-3-methylimidazolium acetate] | 1041.4
CCn1cc[n+](C)c1.CO[PH](=O)[O-] [1-ethyl-3-methylimidazolium methyl phosphonate] | 1185.3
CCCC[n+]1ccn(C)c1.O=S(=O)([N-]S(=O)(=O)C(F)(F)F)C(F)(F)F | 1422.1

*Q* Suppose we examine the compound CCOP(=O)([O-])OCC.CCn1cc[n+](C)c1 [1-ethyl-3-methylimidazolium diethyl phosphate] ; what mass density value has been reported?
*A* 1134.4
